Provenance of the data: patent US20200317779A1

molecular target: recombinant human CD3ε/δ heterodimer (human) (UniProt P07766); test: BLI (Octet), antigen on anti-Penta His sensor, antibody 50 nM
Sequence (P07766 23-126, stated change not applied, chain 1 of 2): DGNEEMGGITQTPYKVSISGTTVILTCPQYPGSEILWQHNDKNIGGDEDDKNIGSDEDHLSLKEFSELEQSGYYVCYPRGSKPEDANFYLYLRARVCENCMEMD
Sequence (P04234 22-105, stated change not applied, chain 2 of 2, further chain): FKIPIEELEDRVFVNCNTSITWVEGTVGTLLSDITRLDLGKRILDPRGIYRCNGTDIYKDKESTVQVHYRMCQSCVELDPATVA
TEST READOUT: kon (M⁻¹ s⁻¹)
A number alone suffices; assume M⁻¹ s⁻¹.

The cases that follow already have their kon on record.
- BINDER: "G15 (antibody, human IgG1, lambda, L234A L235A, V domains shown) VH: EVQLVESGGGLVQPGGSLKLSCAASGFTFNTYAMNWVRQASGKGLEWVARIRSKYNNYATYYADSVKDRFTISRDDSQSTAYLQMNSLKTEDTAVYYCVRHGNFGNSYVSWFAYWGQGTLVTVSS VL: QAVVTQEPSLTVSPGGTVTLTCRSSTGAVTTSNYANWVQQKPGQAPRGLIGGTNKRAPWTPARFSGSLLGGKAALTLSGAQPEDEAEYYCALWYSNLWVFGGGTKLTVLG"
  kon (M⁻¹ s⁻¹): 209000
- BINDER: "E15 (antibody, human IgG1, lambda, L234A L235A, V domains shown) VH: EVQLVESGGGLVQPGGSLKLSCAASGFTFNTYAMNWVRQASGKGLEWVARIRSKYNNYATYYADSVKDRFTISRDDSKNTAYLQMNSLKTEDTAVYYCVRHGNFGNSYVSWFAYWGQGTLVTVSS VL: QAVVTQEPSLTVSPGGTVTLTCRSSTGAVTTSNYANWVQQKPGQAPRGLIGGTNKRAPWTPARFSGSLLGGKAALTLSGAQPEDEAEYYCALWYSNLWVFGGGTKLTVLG"
  kon (M⁻¹ s⁻¹): 225000
- BINDER: "E16 (antibody, human IgG1, lambda, L234A L235A, V domains shown) VH: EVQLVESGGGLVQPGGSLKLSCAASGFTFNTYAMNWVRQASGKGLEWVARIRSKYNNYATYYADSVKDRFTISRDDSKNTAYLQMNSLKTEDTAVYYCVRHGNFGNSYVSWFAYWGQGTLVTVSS VL: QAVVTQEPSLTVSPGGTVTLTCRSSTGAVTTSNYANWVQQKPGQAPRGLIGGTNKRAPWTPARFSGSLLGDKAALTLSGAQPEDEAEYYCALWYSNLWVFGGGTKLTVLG"
  kon (M⁻¹ s⁻¹): 162000

Now turn to the next binder.
*Q* GET /values?readout=kon&item= D08 (antibody, human IgG1, lambda, L234A L235A, V domains shown) VH: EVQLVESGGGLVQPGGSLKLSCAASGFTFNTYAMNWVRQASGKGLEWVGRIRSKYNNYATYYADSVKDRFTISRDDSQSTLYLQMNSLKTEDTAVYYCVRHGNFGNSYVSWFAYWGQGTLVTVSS VL: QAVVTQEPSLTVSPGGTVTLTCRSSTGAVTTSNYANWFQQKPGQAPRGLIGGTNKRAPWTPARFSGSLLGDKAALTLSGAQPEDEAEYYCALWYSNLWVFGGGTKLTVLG
*A* 82000
